Biological target: T1, Rtt103p CID Arg108Asn mutant (yeast, UniProt Q05543 3-131, Arg108Asn)
T1 sequence (looked up): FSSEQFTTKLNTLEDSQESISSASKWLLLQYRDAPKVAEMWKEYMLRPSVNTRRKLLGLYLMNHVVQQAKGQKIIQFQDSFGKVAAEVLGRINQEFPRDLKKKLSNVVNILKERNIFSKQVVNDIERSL
Experiment: fluorescence polarisation; fluorescence anisotropy; Rtt103p CID titrated into 10 nM N-terminally FAM-labelled CTD peptide; 10°C; 35 mM KH2PO4, 100 mM KCl, pH 6.8; 1:1 model with non-specific binding (DynaFit)
Conditions: both partners purified
Non-standard residues stand in square brackets, D forms with d. No end group written: not given here. pT = C[C@@H](OP(=O)(O)O)[C@H](N)C(=O)O; pS = N[C@@H](COP(=O)(O)O)C(=O)O; FAM = 5,6-carboxyfluorescein
Catalogue of Kd values
readout: Kd (µM)

>>> endpoint_value("{FAM}-PSY[pS]PTSPSYSPTSPS (consensus heptad repeats (Tyr1-Ser2-Pro3-Thr4-Ser5-Pro6-Ser7) of the C-terminal domain of the largest subunit of RNA polymerase II (Rpb1); residues named by heptad position and repeat letter (P6a ... S7c); also called pSer2-CTD; FAM-pSer2 CTD; source: synthetic peptide (JPT, Berlin, or Clonestar, Brno)) [FAM-PSY(pS)PTSPSYSPTSPS]")
44
>>> endpoint_value("{FAM}-PSYSP[pT]SPSYSPTSPS (consensus heptad repeats of the C-terminal domain of the largest subunit of RNA polymerase II (Rpb1); residues named by heptad position and repeat letter (P6a ... S7c); also called pThr4-CTD; FAM-pThr4 CTD; source: synthetic peptide (JPT, Berlin, or Clonestar, Brno)) [FAM-PSYSP(pT)SPSYSPTSPS]")
38
